Target: T1, AXL on A431 cells (Homo sapiens, UniProt P30530)
T1 construct: AXL-positive A431 cells were incubated; endogenous in cells; host or cells: A431
Experiment: Antibody binding to A431 cells with or without Gas6 pre-incubation
Settings: pre-incubation with 10 µg/mL Gas6
quantity_measured: Antibody binding to A431 cells: EC50 in presence of Gas6 (µg/mL) mean (s.d.)

{"columns": ["molecule", "measured_value"],
 "data": [
  ["IgG1-AXL-733: AXL-specific human IgG1,κ antibody, VH SEQ ID NO:34, VL SEQ ID NO:35, FN1 domain binding (antibody, listed as Homo sapiens, V domains shown) VH: QVQLVESGGGVVQPGRSLRLSCAASGFSFSTYAMHWVRQAPGKGLEWVAVISYDGDNKYSADSVKGRFTISRDNSKNTLYLQMNSLRAEDTAVYYCARGRKLGIDAFDIWGQGTMVTVSS VL: AIQLTQSPSSLSASVGDRVTITCRASQGISSALAWYQQKPGKAPKLLIYDASSLESGVPSRFSGSGSGTDFTLTISGLQPEDFATYYCQQFNSYPFTFGPGTKVDIK", "0.62 (0.23) µg/mL"]
]}

Here's the next entry for you.
Request: What value of Antibody binding to A431 cells: EC50 in presence of Gas6 (µg/mL) mean (s.d.) has been reported for the following molecule? IgG1-AXL-726: AXL-specific human IgG1,κ antibody, VH SEQ ID NO:31, VL SEQ ID NO:33, FN2 domain binding (antibody, listed as Homo sapiens, V domains shown) VH: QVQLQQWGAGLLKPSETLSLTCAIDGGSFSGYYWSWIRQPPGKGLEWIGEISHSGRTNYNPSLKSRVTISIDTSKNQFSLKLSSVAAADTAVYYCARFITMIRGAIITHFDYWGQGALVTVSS VL: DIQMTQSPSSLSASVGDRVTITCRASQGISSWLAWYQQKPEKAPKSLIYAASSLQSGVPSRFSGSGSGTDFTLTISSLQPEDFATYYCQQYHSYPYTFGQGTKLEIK
Result: 0.55 (0.69) µg/mL
